# System: store-operated calcium entry in RBL-2H3 cells
# METHOD_SUMMARY: Fluorescence (FLUO-4/FLIPR384) store-operated calcium entry screening assay
# Format: cell-based, rat
# COND: Rattus norvegicus; Up slope parameter; RBL-2H3 cells
METRIC: IC50 (µM)
Write the number in µM without appending the unit.

In plain terms, O=C(Nc1scc(-c2ccc(Cl)cc2Cl)c1C(=O)O)c1ccc(Cl)cc1 has a documented IC50 of 1.6

Summary for this molecule, Cc1ccc(-c2csc(NC(=O)c3ccc(Cl)cc3)c2C(=O)O)cc1C : IC50 is 3.8

The reported value for Cc1cccc(C(=O)Nc2scc(-c3ccc(Cl)cc3)c2C(=O)O)c1 in terms of IC50 is 1.2

Entry under test: Cc1ccc(-c2csc(NC(=O)c3ccc(Br)cc3)c2C(=O)O)cc1C . Its IC50 was 4.6

Per the record, O=C(Nc1scc(-c2ccc(Br)cc2)c1C(=O)O)c1ccc(Br)cc1 has IC50 of 1.3

The value of IC50 measured for the molecule O=C(Nc1scc(-c2ccc(Cl)cc2)c1C(=O)O)c1ccc(Cl)cc1 turned out to be 1

Record summary for Cc1cccc(C(=O)Nc2scc(-c3ccc(Br)cc3)c2C(=O)O)c1 : reported IC50 = 2.6

# IC50 (molecule: O=C(Nc1scc(-c2ccc(Br)cc2)c1C(=O)O)c1ccc(F)cc1 ) is 2.2

Entry O=C(Nc1scc(-c2cc(Cl)cc(Cl)c2)c1C(=O)O)c1ccc(Br)cc1 , IC50 reported as 1.6

IC50 reading for O=C(Nc1scc(-c2ccc(Cl)c(Cl)c2)c1C(=O)O)c1ccc(Cl)cc1 : 3

Field IC50 (entry O=C(Nc1scc(-c2ccc(Cl)cc2Cl)c1C(=O)O)c1cccc(F)c1 ) reads 2.1

Lookup result for O=C(Nc1scc(-c2ccc(Cl)cc2)c1C(=O)O)c1ccc(F)cc1 ; measured IC50: 2.3

Entry O=C(Nc1scc(-c2ccc(Cl)cc2)c1C(=O)O)c1cccc(F)c1 — recorded IC50 = 1.3
